Target Or System: T1, human Aβ (1-40) peptide (human)
T1 construct: also called Aβ1-40 fibers
Experiment Description: SPR, immobilized fibers;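 further: biacore SPR using in vitro grown Aβ1-40 or Aβ1-42 fibrils immobilized on the chip with Fab analytes, KD from koff/kon fits or equilibrium isotherms based on total Fab concentration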
Hi there, I'd appreciate the recorded log10 of Kd for every entry that follows.
Remember, log10 of Kd, in nM.

Please look up its log10 of Kd: MS-Roche #7.9.H2 Fab (Fab, V domains shown, assembled) VH: QVQLVESGGGLVQPGGSLRLSCAASGFTFSSYAMSWVRQAPGKGLEWVSAINADGNRKYYADSVKGRFTISRDNSKNTLYLQMNSLRAEDTAVYYCARGKGNTHKPYGYVRYFDVWGQGTLVTVSS VL: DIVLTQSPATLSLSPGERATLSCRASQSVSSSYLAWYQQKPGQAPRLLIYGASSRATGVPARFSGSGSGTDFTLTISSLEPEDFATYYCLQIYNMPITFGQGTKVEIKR
0.70

Please look up its log10 of Kd: MS-Roche #7.12 Fab (Fab, V domains shown) VH: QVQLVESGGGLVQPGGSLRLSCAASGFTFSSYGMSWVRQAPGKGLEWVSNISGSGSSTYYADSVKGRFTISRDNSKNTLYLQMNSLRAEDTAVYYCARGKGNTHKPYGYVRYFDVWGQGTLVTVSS VL: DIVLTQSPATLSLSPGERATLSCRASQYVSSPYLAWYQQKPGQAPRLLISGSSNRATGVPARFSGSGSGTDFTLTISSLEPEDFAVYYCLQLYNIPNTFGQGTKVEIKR
1.45

Please look up its log10 of Kd: MS-Roche #7.2.H2 Fab (Fab, V domains shown) VH: QVQLVESGGGLVQPGGSLRLSCAASGFTFSSYAMSWVRQAPGKGLEWVSAINGTGMKKYYADSVKGRFTISRDNSKNTLYLQMNSLRAEDTAVYYCARGKGNTHKPYGYVRYFDVWGQGTLVTVSS VL: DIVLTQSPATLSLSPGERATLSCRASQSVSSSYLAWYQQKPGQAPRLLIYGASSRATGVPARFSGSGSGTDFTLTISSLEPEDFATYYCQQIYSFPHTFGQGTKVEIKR
0.91

Please look up its log10 of Kd: MS-Roche #7.9.H8 Fab (Fab, V domains shown, assembled) VH: QVQLVESGGGLVQPGGSLRLSCAASGFTFSSYAMSWVRQAPGKGLEWVSAINASGSKIYYADSVKGRFTISRDNSKNTLYLQMNSLRAEDTAVYYCARGKGNTHKPYGYVRYFDVWGQGTLVTVSS VL: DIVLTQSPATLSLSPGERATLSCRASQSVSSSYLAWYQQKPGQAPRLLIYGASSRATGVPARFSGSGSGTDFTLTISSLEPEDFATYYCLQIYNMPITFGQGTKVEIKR
-0.10

Please look up its log10 of Kd: MS-Roche #7.9.H4 Fab (Fab, V domains shown, assembled) VH: QVQLVESGGGLVQPGGSLRLSCAASGFTFSSYAMSWVRQAPGKGLEWVSAINAVGMKKFYADSVKGRFTISRDNSKNTLYLQMNSLRAEDTAVYYCARGKGNTHKPYGYVRYFDVWGQGTLVTVSS VL: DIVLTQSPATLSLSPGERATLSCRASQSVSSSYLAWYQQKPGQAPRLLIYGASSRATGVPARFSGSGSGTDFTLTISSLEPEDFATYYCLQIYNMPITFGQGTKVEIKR
0.68

Please look up its log10 of Kd: MS-Roche #7.9.H3 Fab (Fab, V domains shown, assembled) VH: QVQLVESGGGLVQPGGSLRLSCAASGFTFSSYAMSWVRQAPGKGLEWVSAINYQGNRKYYADSVKGRFTISRDNSKNTLYLQMNSLRAEDTAVYYCARGKGNTHKPYGYVRYFDVWGQGTLVTVSS VL: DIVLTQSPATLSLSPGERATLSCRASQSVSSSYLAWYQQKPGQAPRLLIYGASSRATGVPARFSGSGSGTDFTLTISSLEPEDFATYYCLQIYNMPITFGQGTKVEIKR
0.62

Please look up its log10 of Kd: MS-Roche #7.12.L4 Fab (Fab, V domains shown) VH: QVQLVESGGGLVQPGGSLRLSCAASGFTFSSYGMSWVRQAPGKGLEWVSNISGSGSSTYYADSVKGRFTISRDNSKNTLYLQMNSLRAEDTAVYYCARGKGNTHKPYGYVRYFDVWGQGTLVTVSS VL: DIVLTQSPATLSLSPGERATLSCRASQRLKRSYLAWYQQKPGQAPRLLISGSSNRATGVPARFSGSGSGTDFTLTISSLEPEDFAVYYCLQLYNIPNTFGQGTKVEIKR
0.30

Please look up its log10 of Kd: MS-Roche #7.2.H5 Fab (Fab, V domains shown) VH: QVQLVESGGGLVQPGGSLRLSCAASGFTFSSYAMSWVRQAPGKGLEWVSAINATGRSKYYADSVKGRFTISRDNSKNTLYLQMNSLRAEDTAVYYCARGKGNTHKPYGYVRYFDVWGQGTLVTVSS VL: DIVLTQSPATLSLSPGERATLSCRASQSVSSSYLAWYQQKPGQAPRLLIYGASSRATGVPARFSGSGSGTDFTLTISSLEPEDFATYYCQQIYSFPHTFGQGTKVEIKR
0.90

Please look up its log10 of Kd: MS-Roche #7.11.H5 Fab (Fab, V domains shown) VH: QVQLVESGGGLVQPGGSLRLSCAASGFTFSSYAMSWVRQAPGKGLEWVSAINAHGQRTYYADSVKGRFTISRDNSKNTLYLQMNSLRAEDTAVYYCARGKGNTHKPYGYVRYFDVWGQGTLVTVSS VL: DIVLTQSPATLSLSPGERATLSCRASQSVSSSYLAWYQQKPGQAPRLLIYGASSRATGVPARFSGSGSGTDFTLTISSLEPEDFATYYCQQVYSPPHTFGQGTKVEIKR
0.53

Please look up its log10 of Kd: MS-Roche #7.11.H3 Fab (Fab, V domains shown) VH: QVQLVESGGGLVQPGGSLRLSCAASGFTFSSYAMSWVRQAPGKGLEWVSGINANGNRTYYADSVKGRFTISRDNSKNTLYLQMNSLRAEDTAVYYCARGKGNTHKPYGYVRYFDVWGQGTLVTVSS VL: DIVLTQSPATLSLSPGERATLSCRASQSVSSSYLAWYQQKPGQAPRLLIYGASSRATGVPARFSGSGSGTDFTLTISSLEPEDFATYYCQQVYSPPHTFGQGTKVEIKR
0.82

Please look up its log10 of Kd: MS-Roche #7.2.H4 Fab (Fab, V domains shown) VH: QVQLVESGGGLVQPGGSLRLSCAASGFTFSSYAMSWVRQAPGKGLEWVSAINSKGSRIYYADSVKGRFTISRDNSKNTLYLQMNSLRAEDTAVYYCARGKGNTHKPYGYVRYFDVWGQGTLVTVSS VL: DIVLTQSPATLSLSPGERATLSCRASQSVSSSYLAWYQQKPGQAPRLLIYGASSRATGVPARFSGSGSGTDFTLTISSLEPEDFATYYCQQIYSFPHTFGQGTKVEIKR
0.77
